Catalogue of koff values
measurement-target: T1, cynomolgus suPAR (cynomolgus, UniProt Q9GK78 23-303, limits assumed)
T1 construct: Target antigen of the off-rate screen; also called cynomolgus uPAR; cynoPLAUR-His
T1 sequence (Q9GK78 23-303 limits assumed): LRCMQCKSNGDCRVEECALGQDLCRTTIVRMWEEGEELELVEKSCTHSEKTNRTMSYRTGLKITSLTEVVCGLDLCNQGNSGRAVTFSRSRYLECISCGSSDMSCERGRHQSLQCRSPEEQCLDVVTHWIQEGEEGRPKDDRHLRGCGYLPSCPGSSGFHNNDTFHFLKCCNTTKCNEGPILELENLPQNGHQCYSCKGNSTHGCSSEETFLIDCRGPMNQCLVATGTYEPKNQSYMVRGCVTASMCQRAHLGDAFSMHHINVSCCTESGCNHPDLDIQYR
test-description: BLI (Octet) off-rate screen of scFv clones

binder	unit-abbreviation	koff
suPAR_DB03_C06 (scFv, V domains shown, screened as scFv) VH: QVQLVQSGAEVKKPGASVKVSCKASGYTFTDYYVHWVRQAPGQGLEWMGWIDHEGGSTSYDQKFQGRVTMTRDTSTSTVYMELSSLRSEDTAVYYCARGYDVDWFVYWGQGTLVTVSS VL: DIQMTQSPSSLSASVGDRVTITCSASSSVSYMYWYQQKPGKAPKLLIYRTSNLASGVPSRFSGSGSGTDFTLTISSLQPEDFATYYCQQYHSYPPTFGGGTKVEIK	s⁻¹	0.000189
suPAR_DB03_C12 (scFv, V domains shown, screened as scFv) VH: QVQLVQSGAEVKKPGASVKVSCKASGNTFTNYYMHWVRQAPGQGLEWMGWIDHENGNTSYDQKFQGRVTMTRDTSTSTVYMELSSLRSEDTAVYYCARGYDVDWFVYWGQGTLVTVSS VL: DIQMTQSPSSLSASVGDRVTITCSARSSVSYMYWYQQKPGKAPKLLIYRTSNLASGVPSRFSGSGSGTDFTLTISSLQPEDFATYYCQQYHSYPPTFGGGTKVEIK	s⁻¹	7.59e-05
